Tested on: MS2 coat protein
Test: apparent KD of MS2 coat protein; designed switch direction (-1 OFF switch, 1 ON switch): -1; higher = weaker reporter binding
Details: Eterna round: R95; input ligand: FMN 200 uM
Respond with met for apparent KD of MS2 coat protein values of 40 nM and above, not met for values below.

MACROMOLECULE_SEQUENCE	GROUP_LABEL
ACAAGCUUUUUGUUCGUCUUAUACACUCCUAAUAAGAAAACAUGAGGAUCACCCAUGUAAGAAAUAAGAACUCAUGU [Sesor Array 1 - Jieux - Sensor v3, turn-off variant 2] (puzzle: Sensor v3, turn-off variant 2)	met
CAUUACUGCAAGCUUUGGGACAUGAGGAUCACCCAUGUUCGUCUUAUUGAUCUAGGUACGCUGACGUACCUAGAUCU [JL-sv1-2.27 Brourd mod] (puzzle: Sensor v3, turn-off variant 1)	not met
UCUAGCUUUUUGCGUCAAGCAUUGAAGUCUGUGAUCGUAACAUGAGGAUCACCCAUGUAAGUUUUAUGUCGUCUUGU [JR_SV3TOV2_Sub098] (puzzle: Sensor v3, turn-off variant 2)	met

We next turn to a different sequence, shown below.
[Q] For this sequence, is measured apparent KD of MS2 coat protein 40 nM or higher? GAUUAUGCGAGCUUUAGGGACAUGAGGAUCACCCAUGUUCGUCUUAUUAGUCUAAAUACACUGACAUACCUAAAUCU [JMF 54] (puzzle: Sensor v3, turn-off variant 1)
[A] not met
